tested on: NRF2 (nuclear factor erythroid 2-related factor 2); experiment: NRF2 +/-GSH activation assay (DiscoverX PathHunter NRF2 translocation kit, U2OS cells); assay type: cell-based; conditions: +GSH; 30 minute compound-GSH pre-incubation; read-out: NRF2 activation +GSH EC50
result.type: log10 of EC50 (log10 of the value in µM)

- molecule: "C=C(Cc1nc(-c2ccc(CCCC)cc2)no1)C(=O)O"
  log10 of EC50: 0.58
- molecule: "C=C(Cc1nc(-c2ccc(OC(C)CC)cc2)no1)C(=O)O (stereo in doubt)"
  log10 of EC50: 1.50
- molecule: "C=C(Cc1nc(CCCCCC(F)(F)CC(F)(F)F)no1)C(=O)O"
  log10 of EC50: 1.69
- molecule: "C=C(Cc1nc(Cc2ccc(CCCC)cc2)no1)C(=O)O"
  log10 of EC50: 0.48
- molecule: "C=C(Cc1nc(CCCCCCCCC(F)(F)F)no1)C(=O)O"
  log10 of EC50: 0.95
- molecule: "C=C(Cc1nc(-c2ccc(C(F)(F)CC)cc2)no1)C(=O)O"
  log10 of EC50: 1.57
- molecule: "C=C(Cc1nc(CCc2ccc(CC)cc2)no1)C(=O)O"
  log10 of EC50: 1.60
- molecule: "C=C(Cc1nc(C(C)CCCCCC(F)(F)F)no1)C(=O)O (stereo not shown)"
  log10 of EC50: 1.63
- molecule: "C=C(Cc1nc(CCCCCCCCCCC)no1)C(=O)O"
  log10 of EC50: 0.49
- molecule: "C=C(Cc1nc(Cc2ccc(C(F)(F)CCCC)cc2)no1)C(=O)O"
  log10 of EC50: 1.16
- molecule: "C=C(Cc1nc(-c2ccc(CCCCC(F)(F)F)cc2)no1)C(=O)O"
  log10 of EC50: 0.85
- molecule: "C=C(C(=O)O)C1(c2nc(C(F)(F)c3ccc(C(F)(F)F)cc3)no2)CC1"
  log10 of EC50: 1.79

----------
In this section we review reported hepatocyte CLint at 10 μM values for a set of compounds.
experiment: Hepatocyte stability assay, human; format: in vitro ADME; details: human, hepatocytes, Hepatocyte stability Clint

- compound: "C=C(C(=O)O)C(OC)c1nc(CCCCCCCC)no1 (centres unmarked) [Example 110]"
  censor.symbol: ">"
  hepatocyte CLint at 10 μM [µL/min/1e6 cells]: 460
- compound: "C=C(Cc1nc(Cc2ccc(C(F)(F)CCCC)cc2)no1)C(=O)O [Example 93]"
  censor.symbol: "="
  hepatocyte CLint at 10 μM [µL/min/1e6 cells]: 40
- compound: "C=C(Cc1nc(CCc2ccc(CCC)cc2)no1)C(=O)O [Example 36]"
  censor.symbol: "="
  hepatocyte CLint at 10 μM [µL/min/1e6 cells]: 23
- compound: "C=C(Cc1nc(-c2cccc(CCCC)c2)no1)C(=O)O [Example 27]"
  censor.symbol: "="
  hepatocyte CLint at 10 μM [µL/min/1e6 cells]: 156
- compound: "C=C(Cc1nc(C(F)(F)c2ccc(SC(F)(F)F)cc2)no1)C(=O)O [Example 155]"
  censor.symbol: "="
  hepatocyte CLint at 10 μM [µL/min/1e6 cells]: 8

----------
system: NRF2 (nuclear factor erythroid 2-related factor 2); assay: NRF2 +/-GSH activation assay (DiscoverX PathHunter NRF2 translocation kit, U2OS cells); type: cell-based; conditions: +GSH; 30 minute compound-GSH pre-incubation; read-out: NRF2 activation +GSH EC50
Where a name gives a salt, the structure may show the parent alone.

- compound: "C=C(Cc1nc(-c2cc(F)c(OCCCC)c(F)c2)no1)C(=O)O"
  censor.symbol: "="
  EC50 [µM]: 1.3
- compound: "C=C(Cc1nc(C2(c3cc(Cl)c(F)c(Cl)c3)CC2)no1)C(=O)O"
  censor.symbol: "="
  EC50 [µM]: 4.2
- compound: "C=C(Cc1nc(-c2ccc(OCCCOC)cc2)no1)C(=O)O"
  censor.symbol: "="
  EC50 [µM]: 39.9
- compound: "C=C(Cc1nc(Cc2ccc(CCC)cc2)no1)C(=O)O"
  censor.symbol: "="
  EC50 [µM]: 15.6
- compound: "C=C(Cc1nc(Cc2ccc(Cl)c(Cl)c2)no1)C(=O)O"
  censor.symbol: "="
  EC50 [µM]: 52.2
- compound: "C=C(Cc1cccc(Cc2ccc(Cl)cc2)n1)C(=O)O [Example 171, trifluoroacetic acid salt]"
  censor.symbol: ">"
  EC50 [µM]: 100
- compound: "C=C(Cc1nc([C@@H](C)CCCCCC)no1)C(=O)O"
  censor.symbol: "="
  EC50 [µM]: 27.4
- compound: "C=C(Cc1nc(CC2CCCCC2)no1)C(=O)O"
  censor.symbol: ">"
  EC50 [µM]: 100
- compound: "C=C(Cc1nc(-c2ccc(Cl)cc2)no1)C(=O)O"
  censor.symbol: "="
  EC50 [µM]: 44.5
- compound: "C/C(=C\\c1nc(C2(c3ccc(S(F)(F)(F)(F)F)cc3)CC2)no1)C(=O)O"
  censor.symbol: ">"
  EC50 [µM]: 100
- compound: "C=C(Cc1nc(C(F)(F)c2ccc(Br)cc2)no1)C(=O)O"
  censor.symbol: "="
  EC50 [µM]: 44
- compound: "C=C(Cc1nc(-c2ccc(O[C@H](C)CC)cc2)no1)C(=O)O"
  censor.symbol: "="
  EC50 [µM]: 31.1
- compound: "C=C(Cc1nc(-c2ccc(SC(F)(F)F)cc2)no1)C(=O)O"
  censor.symbol: "="
  EC50 [µM]: 2.9
- compound: "C=C(Cc1nc(CCCCCCCCC)no1)C(=O)O"
  censor.symbol: "="
  EC50 [µM]: 1.8
- compound: "C=C(Cc1nc(C2(c3ccc(Br)cc3)CC2)no1)C(=O)O"
  censor.symbol: "="
  EC50 [µM]: 39.2
- compound: "C=C(Cc1ccccc1Cl)C(=O)O [2-(2-chlorobenzyl)acrylic acid, reference compound]"
  censor.symbol: ">"
  EC50 [µM]: 100
- compound: "C=C(Cc1nc(C(F)(F)CCCCCCC)no1)C(=O)O"
  censor.symbol: "="
  EC50 [µM]: 3
